Where do the numbers come from? From patent US20260125382A1.

- tested system: CDK9 (Homo sapiens)
- Construct: endogenous in cells; host or cells: MDA-MB-231
- Sequence (P50750 whole entry): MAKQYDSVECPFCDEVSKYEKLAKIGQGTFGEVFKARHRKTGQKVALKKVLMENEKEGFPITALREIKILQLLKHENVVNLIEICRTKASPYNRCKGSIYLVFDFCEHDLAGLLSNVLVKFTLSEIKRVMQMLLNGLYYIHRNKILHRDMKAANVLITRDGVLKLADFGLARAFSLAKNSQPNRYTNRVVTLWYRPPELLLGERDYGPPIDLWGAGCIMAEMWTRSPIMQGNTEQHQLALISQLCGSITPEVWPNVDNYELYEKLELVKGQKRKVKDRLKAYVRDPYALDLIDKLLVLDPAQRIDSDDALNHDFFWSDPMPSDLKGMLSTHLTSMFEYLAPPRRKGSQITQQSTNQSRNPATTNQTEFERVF
- procedure text: CDK protein degradation activity (Western blotting), CDK9
- Assay type: cell-based
- condition set: MDA-MB-231 cells, 1 μM, 16 hours, Western blot
Catalogue of Enzyme degradation CDK9 (% remaining) @ 1 μM readings, one per entry.
Return type: number; implicit unit %.

Worked cases, Enzyme degradation CDK9 (% remaining) @ 1 μM given:
* O=C1CC[C@@H](c2cccc(OCC(=O)N3CCC(CN4CCN(c5ccc(Nc6ncnc7c6ncn7C6CC(NC(=O)Cc7ccccc7)C6)cc5)CC4)CC3)c2)C(=O)N1 (some centres unmarked) | 0
* O=C1CC[C@H](N2C(=O)c3cccc(OCC(=O)N4CCN(CC5CCN(c6ccc(Nc7ncnc8c7ncn8C7CC(NC(=O)Cc8ccccc8)C7)cc6)CC5)CC4)c3C2=O)C(=O)N1 (some centres unmarked) | 10

Field: next molecule
Q. Input Cc1cccc(C(=O)N[C@H]2C[C@@H](n3cnc4c(NCc5cccc(OCC6CCN(C(=O)COc7ccc8c(c7)C(=O)N([C@H]7CCC(=O)NC7=O)C8=O)CC6)c5)ncnc43)C2)n1 , output reported Enzyme degradation CDK9 (% remaining) @ 1 μM.
A. 10
